Property: Kp at 2 h; scope: individual molecules
EXPERIMENT: Ratio of drug level in ICR mouse brain to plasma at 5 mg/kg, iv measured after 2 hrs by LC-MS/MS analysis
Type: ADME, organism-based
CONDITIONS USED: read-out: BPR
Format: numeric value only, no unit, no commentary.

query: Suppose we examine the molecule CCCN(CCCCNC(=O)c1cc2ccccc2[nH]1)C[C@@H]1C[C@H]1c1cccc(Cl)c1Cl.Cl ; what Kp at 2 h value has been reported?
result: 5.72

query: Suppose we examine the molecule CCCN(CCCCNC(=O)c1ccc(-c2ccccn2)cc1)C[C@@H]1C[C@H]1c1cc(F)ccc1OC.Cl ; what Kp at 2 h value has been reported?
result: 1.53

query: Suppose we examine the molecule CCCN(CCCCNC(=O)c1ccc(-c2ccccn2)cc1)C[C@@H]1C[C@H]1c1cccc(Cl)c1Cl.Cl ; what Kp at 2 h value has been reported?
result: 1.93

query: Suppose we examine the molecule CCCN(CCCCNC(=O)c1ccc2ccccc2c1)C[C@@H]1C[C@H]1c1cccc(Cl)c1Cl.Cl ; what Kp at 2 h value has been reported?
result: 11.1
